system: human DLK (Homo sapiens)
Sequence (Q12852 1-859): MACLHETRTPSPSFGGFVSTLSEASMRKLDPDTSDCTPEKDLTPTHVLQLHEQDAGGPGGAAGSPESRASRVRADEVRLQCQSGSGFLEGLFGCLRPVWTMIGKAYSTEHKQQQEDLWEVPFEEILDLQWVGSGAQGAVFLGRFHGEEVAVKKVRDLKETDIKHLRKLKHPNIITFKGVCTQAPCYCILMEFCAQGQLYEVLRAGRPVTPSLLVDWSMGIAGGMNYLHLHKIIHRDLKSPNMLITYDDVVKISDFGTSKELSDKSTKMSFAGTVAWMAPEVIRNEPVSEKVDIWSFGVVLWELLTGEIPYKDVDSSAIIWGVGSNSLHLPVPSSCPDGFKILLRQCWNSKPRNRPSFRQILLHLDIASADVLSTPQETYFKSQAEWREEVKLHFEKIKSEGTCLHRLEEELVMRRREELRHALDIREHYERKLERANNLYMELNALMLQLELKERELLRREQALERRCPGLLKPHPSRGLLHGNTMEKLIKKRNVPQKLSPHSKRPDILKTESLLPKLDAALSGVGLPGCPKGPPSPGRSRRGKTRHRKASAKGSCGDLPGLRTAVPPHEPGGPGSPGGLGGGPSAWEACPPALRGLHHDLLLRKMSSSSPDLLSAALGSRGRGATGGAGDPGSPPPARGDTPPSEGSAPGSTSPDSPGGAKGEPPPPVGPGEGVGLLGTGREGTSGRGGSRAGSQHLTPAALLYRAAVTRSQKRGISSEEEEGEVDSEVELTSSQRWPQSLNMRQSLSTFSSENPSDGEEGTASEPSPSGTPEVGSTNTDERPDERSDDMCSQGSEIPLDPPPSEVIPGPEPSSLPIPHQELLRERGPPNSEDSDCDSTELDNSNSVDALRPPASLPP
assay-explanation: Phospho-cJun Cellular Assay
Assay type: cell-based
Set-up: expressed in transfected cells
assay-context: HEK293 cells stably transfected with Dox-inducible human DLK; p-cJun (Ser63); 5 h compound incubation
measure-name: pIC50
Here pIC50 is given on a logarithmic scale as minus log10 of the concentration in mol/L.

| molecule | pIC50 |
| --- | --- |
| CN1CCN(C2C[C@@H]3[C@H](C2)[C@H]3n2cc(-c3cnc(N)c(OC(F)(F)F)c3)nc2C2CC2)CC1 (stereo partly shown) | 6.46 |

So what does the record say about pIC50 for Nc1ncc(-c2cn([C@H]3[C@@H]4CC(N5CCN(CCF)CC5)C[C@@H]43)c(CC3CC3)n2)cc1C(F)(F)F (single isomer, unassigned) [Example 162b] ?
6.11

So what does the record say about pIC50 for Nc1ncc(-c2cn([C@H]3[C@@H]4CC(N5CCOCC5)C[C@@H]43)c(C3CC3)n2)cc1OC(F)(F)F (single isomer, unassigned) [Example 139a] ?
6.26

So what does the record say about pIC50 for CC(C)c1nc(-c2cnc(N)c(OC(F)(F)F)c2)cn1[C@H]1[C@@H]2CC(N3CCCOCC3)C[C@@H]21 (single isomer, unassigned) [Example 20a] ?
6.02

So what does the record say about pIC50 for CC(C)Cc1nc(-c2cnc(N)c(C(F)(F)F)c2)cn1[C@H]1[C@@H]2CC(N3CCN(CCF)CC3)C[C@@H]21 (single isomer, unassigned) [Example 160b] ?
6.11

So what does the record say about pIC50 for Nc1ncc(-c2cn([C@H]3[C@@H]4CC(N5CCCOCC5)C[C@@H]43)c(C3CC3)n2)cc1OC(F)(F)F (stereo partly shown) [Example 136] ?
6.18

So what does the record say about pIC50 for Nc1ncc(-c2cn([C@H]3[C@@H]4CN(CCF)C[C@@H]43)c(C3CC3)n2)cc1C(F)(F)F ?
5.92

So what does the record say about pIC50 for CC(C)Cc1nc(-c2cnc(N)c(C(F)(F)F)c2)cn1[C@H]1[C@@H]2CN(CCF)C[C@@H]21 ?
6.08

So what does the record say about pIC50 for Nc1ncc(-c2cn([C@H]3[C@@H]4CC(N5CCN(CCF)CC5)C[C@@H]43)c(C3CC3)n2)cc1OC(F)(F)F (single isomer, unassigned) [Example 154a] ?
6.12

So what does the record say about pIC50 for Nc1ncc(-c2cn([C@H]3[C@@H]4CC(N5CCN(CCF)CC5)C[C@@H]43)c(CC3CC3)n2)cc1OC(F)(F)F (single isomer, unassigned) [Example 152b] ?
5.94
